Overview of reported self-cleavage kobs at 40 uM GlcN6P across a group of variants:
B1: glmS ribozyme (parent)
chain: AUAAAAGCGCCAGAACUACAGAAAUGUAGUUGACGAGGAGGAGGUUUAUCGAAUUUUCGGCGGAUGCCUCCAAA

- Variants of: B1
- PROTOCOL TEXT: self-cleavage kobs at 40 uM GlcN6P; higher = faster cleavage; RNA array
- EXPERIMENTAL SETUP: with glucosamine-6-phosphate
This sample holds only a part of the variants without activity.

{"VARIANT DESCRIPTOR": "A36U U54C", "self-cleavage kobs at 40 uM GlcN6P": "< 1e-05 s⁻¹"}
{"VARIANT DESCRIPTOR": "C8U G35C", "self-cleavage kobs at 40 uM GlcN6P": "< 1e-05 s⁻¹"}
{"VARIANT DESCRIPTOR": "C10U G60U C67U", "self-cleavage kobs at 40 uM GlcN6P": "< 1e-05 s⁻¹"}
{"VARIANT DESCRIPTOR": "C8U U49A", "self-cleavage kobs at 40 uM GlcN6P": "< 1e-05 s⁻¹"}
{"VARIANT DESCRIPTOR": "A39U G51U", "self-cleavage kobs at 40 uM GlcN6P": "< 1e-05 s⁻¹"}
{"VARIANT DESCRIPTOR": "A12U G29A G41A C50A C67A", "self-cleavage kobs at 40 uM GlcN6P": "< 1e-05 s⁻¹"}
{"VARIANT DESCRIPTOR": "G38U G44A", "self-cleavage kobs at 40 uM GlcN6P": "< 1e-05 s⁻¹"}
{"VARIANT DESCRIPTOR": "A33C G40C", "self-cleavage kobs at 40 uM GlcN6P": "< 1e-05 s⁻¹"}
{"VARIANT DESCRIPTOR": "A6G U55G G66C C70A", "self-cleavage kobs at 40 uM GlcN6P": "0.000223 s⁻¹"}
{"VARIANT DESCRIPTOR": "A15U A36G U69G", "self-cleavage kobs at 40 uM GlcN6P": "3.94e-05 s⁻¹"}
{"VARIANT DESCRIPTOR": "A12U A14U A53G", "self-cleavage kobs at 40 uM GlcN6P": "0.000135 s⁻¹"}
{"VARIANT DESCRIPTOR": "U56G C67G", "self-cleavage kobs at 40 uM GlcN6P": "3.84e-05 s⁻¹"}
{"VARIANT DESCRIPTOR": "A6U A33U", "self-cleavage kobs at 40 uM GlcN6P": "< 1e-05 s⁻¹"}
{"VARIANT DESCRIPTOR": "C11G G37C G40U G51A U65C", "self-cleavage kobs at 40 uM GlcN6P": "< 1e-05 s⁻¹"}
{"VARIANT DESCRIPTOR": "U31G G35C", "self-cleavage kobs at 40 uM GlcN6P": "< 1e-05 s⁻¹"}
{"VARIANT DESCRIPTOR": "G38U U46G G60C", "self-cleavage kobs at 40 uM GlcN6P": "< 1e-05 s⁻¹"}
{"VARIANT DESCRIPTOR": "C11U A42C U56A C68A", "self-cleavage kobs at 40 uM GlcN6P": "< 1e-05 s⁻¹"}
{"VARIANT DESCRIPTOR": "G35U G63U G66C C67A", "self-cleavage kobs at 40 uM GlcN6P": "< 1e-05 s⁻¹"}
{"VARIANT DESCRIPTOR": "C11G G60C", "self-cleavage kobs at 40 uM GlcN6P": "< 1e-05 s⁻¹"}
{"VARIANT DESCRIPTOR": "C11A U46A", "self-cleavage kobs at 40 uM GlcN6P": "< 1e-05 s⁻¹"}
{"VARIANT DESCRIPTOR": "A14G G43U U46G", "self-cleavage kobs at 40 uM GlcN6P": "< 1e-05 s⁻¹"}
{"VARIANT DESCRIPTOR": "G32U U46C G51U", "self-cleavage kobs at 40 uM GlcN6P": "< 1e-05 s⁻¹"}
{"VARIANT DESCRIPTOR": "A36G A48C", "self-cleavage kobs at 40 uM GlcN6P": "< 1e-05 s⁻¹"}
{"VARIANT DESCRIPTOR": "C34A G35U G37A U49A U56C", "self-cleavage kobs at 40 uM GlcN6P": "< 1e-05 s⁻¹"}
{"VARIANT DESCRIPTOR": "U55C U57G", "self-cleavage kobs at 40 uM GlcN6P": "< 1e-05 s⁻¹"}
{"VARIANT DESCRIPTOR": "A36C C68G", "self-cleavage kobs at 40 uM GlcN6P": "3.7e-05 s⁻¹"}
{"VARIANT DESCRIPTOR": "C61A G66C", "self-cleavage kobs at 40 uM GlcN6P": "< 1e-05 s⁻¹"}
{"VARIANT DESCRIPTOR": "G32A U55A", "self-cleavage kobs at 40 uM GlcN6P": "5.08e-05 s⁻¹"}
{"VARIANT DESCRIPTOR": "C16A G29A", "self-cleavage kobs at 40 uM GlcN6P": "7.39e-05 s⁻¹"}
{"VARIANT DESCRIPTOR": "G13A G37U", "self-cleavage kobs at 40 uM GlcN6P": "< 1e-05 s⁻¹"}
{"VARIANT DESCRIPTOR": "A52G U55C", "self-cleavage kobs at 40 uM GlcN6P": "3.24e-05 s⁻¹"}
{"VARIANT DESCRIPTOR": "A42C G51A", "self-cleavage kobs at 40 uM GlcN6P": "< 1e-05 s⁻¹"}
{"VARIANT DESCRIPTOR": "A39C C70U", "self-cleavage kobs at 40 uM GlcN6P": "4.36e-05 s⁻¹"}
{"VARIANT DESCRIPTOR": "A6G A15C C16U", "self-cleavage kobs at 40 uM GlcN6P": "< 1e-05 s⁻¹"}
{"VARIANT DESCRIPTOR": "G35C G43A", "self-cleavage kobs at 40 uM GlcN6P": "< 1e-05 s⁻¹"}
{"VARIANT DESCRIPTOR": "U45G G62A", "self-cleavage kobs at 40 uM GlcN6P": "< 1e-05 s⁻¹"}
{"VARIANT DESCRIPTOR": "U47G C58A G59A C70A", "self-cleavage kobs at 40 uM GlcN6P": "4.75e-05 s⁻¹"}
{"VARIANT DESCRIPTOR": "U30G G43A", "self-cleavage kobs at 40 uM GlcN6P": "< 1e-05 s⁻¹"}
{"VARIANT DESCRIPTOR": "A52U C71A", "self-cleavage kobs at 40 uM GlcN6P": "< 1e-05 s⁻¹"}
{"VARIANT DESCRIPTOR": "U31G G63A", "self-cleavage kobs at 40 uM GlcN6P": "< 1e-05 s⁻¹"}
{"VARIANT DESCRIPTOR": "G13A C67G", "self-cleavage kobs at 40 uM GlcN6P": "< 1e-05 s⁻¹"}
{"VARIANT DESCRIPTOR": "G13C G51C G63C", "self-cleavage kobs at 40 uM GlcN6P": "< 1e-05 s⁻¹"}
{"VARIANT DESCRIPTOR": "G38C U47A C70U", "self-cleavage kobs at 40 uM GlcN6P": "< 1e-05 s⁻¹"}
{"VARIANT DESCRIPTOR": "G7A U69G", "self-cleavage kobs at 40 uM GlcN6P": "0.000261 s⁻¹"}
{"VARIANT DESCRIPTOR": "A39C U56G", "self-cleavage kobs at 40 uM GlcN6P": "5.55e-05 s⁻¹"}
{"VARIANT DESCRIPTOR": "U45G G63U A64C", "self-cleavage kobs at 40 uM GlcN6P": "< 1e-05 s⁻¹"}
{"VARIANT DESCRIPTOR": "A14G A48U", "self-cleavage kobs at 40 uM GlcN6P": "3.34e-05 s⁻¹"}
{"VARIANT DESCRIPTOR": "A64G U65G C71A", "self-cleavage kobs at 40 uM GlcN6P": "5.45e-05 s⁻¹"}
{"VARIANT DESCRIPTOR": "G7A A39C G51U", "self-cleavage kobs at 40 uM GlcN6P": "< 1e-05 s⁻¹"}
{"VARIANT DESCRIPTOR": "U30A A53U", "self-cleavage kobs at 40 uM GlcN6P": "0.000128 s⁻¹"}
{"VARIANT DESCRIPTOR": "G29C U45C G62A", "self-cleavage kobs at 40 uM GlcN6P": "< 1e-05 s⁻¹"}
{"VARIANT DESCRIPTOR": "G40C U49A", "self-cleavage kobs at 40 uM GlcN6P": "< 1e-05 s⁻¹"}
{"VARIANT DESCRIPTOR": "A42G A53G", "self-cleavage kobs at 40 uM GlcN6P": "0.00144 s⁻¹"}
{"VARIANT DESCRIPTOR": "A48G U65C", "self-cleavage kobs at 40 uM GlcN6P": "< 1e-05 s⁻¹"}
{"VARIANT DESCRIPTOR": "U46A C58U", "self-cleavage kobs at 40 uM GlcN6P": "< 1e-05 s⁻¹"}
{"VARIANT DESCRIPTOR": "G41A U54G", "self-cleavage kobs at 40 uM GlcN6P": "9.13e-05 s⁻¹"}
{"VARIANT DESCRIPTOR": "A33G G41U", "self-cleavage kobs at 40 uM GlcN6P": "< 1e-05 s⁻¹"}
{"VARIANT DESCRIPTOR": "G35C C61G", "self-cleavage kobs at 40 uM GlcN6P": "< 1e-05 s⁻¹"}
{"VARIANT DESCRIPTOR": "A33C C68A", "self-cleavage kobs at 40 uM GlcN6P": "< 1e-05 s⁻¹"}
{"VARIANT DESCRIPTOR": "C8U G29C", "self-cleavage kobs at 40 uM GlcN6P": "< 1e-05 s⁻¹"}
{"VARIANT DESCRIPTOR": "G32C A52C", "self-cleavage kobs at 40 uM GlcN6P": "< 1e-05 s⁻¹"}
{"VARIANT DESCRIPTOR": "A14U A39C", "self-cleavage kobs at 40 uM GlcN6P": "2.83e-05 s⁻¹"}
{"VARIANT DESCRIPTOR": "A14G A15U G40U", "self-cleavage kobs at 40 uM GlcN6P": "0.00018 s⁻¹"}
{"VARIANT DESCRIPTOR": "A39C G51C C71G", "self-cleavage kobs at 40 uM GlcN6P": "< 1e-05 s⁻¹"}
{"VARIANT DESCRIPTOR": "A6G G32U", "self-cleavage kobs at 40 uM GlcN6P": "< 1e-05 s⁻¹"}
{"VARIANT DESCRIPTOR": "U31A G44C", "self-cleavage kobs at 40 uM GlcN6P": "< 1e-05 s⁻¹"}
{"VARIANT DESCRIPTOR": "C34G", "self-cleavage kobs at 40 uM GlcN6P": "< 1e-05 s⁻¹"}
{"VARIANT DESCRIPTOR": "C11G U46A", "self-cleavage kobs at 40 uM GlcN6P": "< 1e-05 s⁻¹"}
{"VARIANT DESCRIPTOR": "A14G G40A A53U", "self-cleavage kobs at 40 uM GlcN6P": "0.000596 s⁻¹"}
{"VARIANT DESCRIPTOR": "G41C C50U", "self-cleavage kobs at 40 uM GlcN6P": "< 1e-05 s⁻¹"}
{"VARIANT DESCRIPTOR": "G32C U69G", "self-cleavage kobs at 40 uM GlcN6P": "0.000189 s⁻¹"}
{"VARIANT DESCRIPTOR": "A36G U65G", "self-cleavage kobs at 40 uM GlcN6P": "< 1e-05 s⁻¹"}
{"VARIANT DESCRIPTOR": "C8U G41A G59C", "self-cleavage kobs at 40 uM GlcN6P": "< 1e-05 s⁻¹"}
{"VARIANT DESCRIPTOR": "A15G C16U", "self-cleavage kobs at 40 uM GlcN6P": "0.000403 s⁻¹"}
{"VARIANT DESCRIPTOR": "A33U G51C G60U G63U", "self-cleavage kobs at 40 uM GlcN6P": "< 1e-05 s⁻¹"}
{"VARIANT DESCRIPTOR": "U45G", "self-cleavage kobs at 40 uM GlcN6P": "0.000203 s⁻¹"}
{"VARIANT DESCRIPTOR": "C10G G38U U65G", "self-cleavage kobs at 40 uM GlcN6P": "< 1e-05 s⁻¹"}
{"VARIANT DESCRIPTOR": "G38U G44U U49C", "self-cleavage kobs at 40 uM GlcN6P": "< 1e-05 s⁻¹"}
{"VARIANT DESCRIPTOR": "G35C G40A", "self-cleavage kobs at 40 uM GlcN6P": "< 1e-05 s⁻¹"}
{"VARIANT DESCRIPTOR": "U31G C34U", "self-cleavage kobs at 40 uM GlcN6P": "< 1e-05 s⁻¹"}
{"VARIANT DESCRIPTOR": "C10A A14U C70A", "self-cleavage kobs at 40 uM GlcN6P": "5.36e-05 s⁻¹"}
{"VARIANT DESCRIPTOR": "U31G G44U C61U", "self-cleavage kobs at 40 uM GlcN6P": "< 1e-05 s⁻¹"}
{"VARIANT DESCRIPTOR": "A48C U49G G62A", "self-cleavage kobs at 40 uM GlcN6P": "< 1e-05 s⁻¹"}
{"VARIANT DESCRIPTOR": "A12U U30A C70U", "self-cleavage kobs at 40 uM GlcN6P": "0.000748 s⁻¹"}
{"VARIANT DESCRIPTOR": "G44U G51U C67G", "self-cleavage kobs at 40 uM GlcN6P": "< 1e-05 s⁻¹"}
